System: Acinetobacter baumannii
Positions of bridges follow the written chain, without caps; N, C: chain ends. Non-standard residues stand in square brackets, D forms with d. Residues, ends and D or L forms follow the SMILES beside them. *: point of attachment. Octanoyl = CCCCCCCC(=O)*; Dab = NCC[C@H](N)C(=O)O; Dap = NC[C@H](N)C(=O)O
readout: Minimum inhibitory concentration, Ab A ATCC 17978 (µg/mL)
Could you give me the number in µg/mL? Just the number is fine.

Identify measured Minimum inhibitory concentration, Ab A ATCC 17978 obtained with Acinetobacter baumannii for CCCCCCCC(=O)N[C@@H](CCN)C(=O)N[C@H](C(=O)N[C@@H](CN)C(=O)N[C@H]1CCNC(=O)[C@H]([C@@H](C)O)NC(=O)[C@H](CCN)NC(=O)[C@H](CCN)NC(=O)[C@H]([C@@H](C)O)NC(=O)[C@@H](CC(C)C)NC(=O)[C@H](CCN)NC1=O)[C@@H](C)O [Compound 33] (Octanoyl-[Dab]T[Dap][Dab][Dab][dL]T[Dab][Dab]T; lactam 4-C) .
0.25
